From: ChEMBL document CHEMBL3588744

# method.description: physchem
# assay.setup: phosphate buffered saline, pH 7.4, solubility
# Description: Solubility of the compound in phosphate buffered saline at pH 7.4 after 1 hr by CLND method
parameter: solubility kinetic at 1 h (µM)

Cc1cc2ccnc(N[C@@H]3CCNC[C@H]3OC(C)C)c2[nH]c1=O (racemic) :: 207
Cc1cncc(-c2cnc(N[C@H]3CCNC[C@@H]3OCC3CCCCC3)c3[nH]c(=O)c(C)cc23)c1 :: 196

###

# target.desc: Protein polybromo-1 (Homo sapiens)
# Sequence (Q86U86 whole entry): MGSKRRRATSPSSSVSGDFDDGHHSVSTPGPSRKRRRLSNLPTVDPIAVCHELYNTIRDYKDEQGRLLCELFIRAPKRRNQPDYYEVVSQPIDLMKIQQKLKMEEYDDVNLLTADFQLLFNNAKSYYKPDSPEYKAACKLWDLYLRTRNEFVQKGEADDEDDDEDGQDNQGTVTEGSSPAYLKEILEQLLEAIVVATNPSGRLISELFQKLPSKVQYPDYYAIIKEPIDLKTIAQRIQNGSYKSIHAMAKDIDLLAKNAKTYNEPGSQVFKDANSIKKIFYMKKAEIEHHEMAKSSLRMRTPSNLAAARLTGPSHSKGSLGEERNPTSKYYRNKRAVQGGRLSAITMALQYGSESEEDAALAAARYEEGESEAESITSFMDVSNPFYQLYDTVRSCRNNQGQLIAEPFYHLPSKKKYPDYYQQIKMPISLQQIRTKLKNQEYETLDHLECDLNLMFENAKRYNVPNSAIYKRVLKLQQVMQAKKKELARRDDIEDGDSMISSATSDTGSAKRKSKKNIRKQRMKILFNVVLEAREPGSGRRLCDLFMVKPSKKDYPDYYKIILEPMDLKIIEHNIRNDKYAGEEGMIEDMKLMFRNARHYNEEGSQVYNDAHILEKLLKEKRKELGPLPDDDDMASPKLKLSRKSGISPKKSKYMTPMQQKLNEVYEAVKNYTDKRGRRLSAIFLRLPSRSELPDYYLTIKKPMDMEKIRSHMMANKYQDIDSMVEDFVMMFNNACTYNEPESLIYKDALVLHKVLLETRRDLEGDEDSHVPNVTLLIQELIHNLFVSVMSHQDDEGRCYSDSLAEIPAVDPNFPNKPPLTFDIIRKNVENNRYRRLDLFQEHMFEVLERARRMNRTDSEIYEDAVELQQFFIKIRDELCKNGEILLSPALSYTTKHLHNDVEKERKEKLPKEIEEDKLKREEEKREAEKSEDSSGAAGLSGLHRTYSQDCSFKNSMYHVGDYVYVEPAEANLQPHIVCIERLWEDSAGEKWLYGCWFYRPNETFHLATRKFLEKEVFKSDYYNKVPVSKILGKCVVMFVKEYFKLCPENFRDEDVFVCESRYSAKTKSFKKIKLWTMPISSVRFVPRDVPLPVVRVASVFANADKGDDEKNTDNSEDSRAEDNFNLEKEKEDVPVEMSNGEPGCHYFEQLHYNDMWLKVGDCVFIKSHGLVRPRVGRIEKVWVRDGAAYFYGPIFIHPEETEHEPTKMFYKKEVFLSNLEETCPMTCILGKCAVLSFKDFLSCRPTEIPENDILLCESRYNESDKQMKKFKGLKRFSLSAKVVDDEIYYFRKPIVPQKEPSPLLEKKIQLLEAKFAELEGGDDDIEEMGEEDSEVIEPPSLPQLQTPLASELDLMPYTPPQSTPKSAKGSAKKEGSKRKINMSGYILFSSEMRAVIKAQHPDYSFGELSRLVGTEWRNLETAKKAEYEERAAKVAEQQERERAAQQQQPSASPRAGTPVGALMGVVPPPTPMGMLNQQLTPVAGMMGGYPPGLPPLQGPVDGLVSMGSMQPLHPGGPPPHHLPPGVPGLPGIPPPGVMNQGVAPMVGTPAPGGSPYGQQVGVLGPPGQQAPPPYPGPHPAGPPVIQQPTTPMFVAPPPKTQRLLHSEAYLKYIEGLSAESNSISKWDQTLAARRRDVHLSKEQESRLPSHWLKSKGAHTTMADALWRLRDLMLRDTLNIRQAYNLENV
# method.description: Binding affinity to PBRM1 in human HUT78 cells incubated for 45 mins by mass spectrometry based bromosphere chemoproteomic assay
# Kd per record follows

Cc1cncc(-c2ccc(N[C@@H]3CCNC[C@H]3OCC3CCS(=O)(=O)CC3)c3[nH]c(=O)c(C)cc23)c1 :: 2.51 µM
Cc1cncc(-c2cnc(N[C@@H]3CCN(C)C[C@H]3OCC3CCS(=O)(=O)CC3)c3[nH]c(=O)c(C)cc23)c1 :: > 100 µM

Query: Give me measured Kd, please, for this compound: Cc1cncc(-c2cnc(N[C@@H]3CCNC[C@H]3OCC3CCCCC3)c3[nH]c(=O)c(C)cc23)c1
Result: > 100 µM

###

# target.desc: Bromodomain testis-specific protein (Homo sapiens)
# method.description: Binding affinity to BRDt containing BD1 bromodomains (unknown origin) by TR-FRET assay
parameter: IC50

Query: Output reported IC50 of the compound Cc1cncc(-c2cnc(N[C@@H]3CCN(C)C[C@H]3OCC3CCS(=O)(=O)CC3)c3[nH]c(=O)c(C)cc23)c1 on Bromodomain testis-specific protein (Homo sapiens).
Result: > 50.1 µM

###

# target.desc: Bromodomain-containing protein 4 (Homo sapiens, UniProt O60885)
# method.description: Binding affinity to BRD4 BD1 (unknown origin) by BROMOscan panel based assay
parameter: Ki (µM)
Just the number please, in µM, no unit attached.

Query: Give reported Ki value for Cc1cncc(-c2cnc(N[C@@H]3CCN(C)C[C@H]3OCC3CCS(=O)(=O)CC3)c3[nH]c(=O)c(C)cc23)c1
Result: 7.94

###

# target.desc: Bromodomain-containing protein 4 (Homo sapiens, UniProt O60885, Y390A)
pIC50: −log10 of the molar value.
parameter: pIC50

Use the examples below as a reference point.
Cc1cc2ccnc(N[C@@H]3CCNC[C@H]3OCC3CCS(=O)(=O)CC3)c2[nH]c1=O :: 4.90
Cc1cc2ccnc(N[C@@H]3CCNC[C@H]3OC[C@@H]3CCS(=O)(=O)C3)c2[nH]c1=O (racemic) :: 4.90
CC(=O)N1CCC(CO[C@@H]2CNCC[C@H]2Nc2nccc3cc(C)c(=O)[nH]c23)CC1 (racemic) :: 5.00
Cc1cc2c(-c3cncnc3)cnc(N[C@@H]3CCNC[C@H]3OCC3CCOCC3)c2[nH]c1=O :: 4.30

1: Cc1cc2ccnc(N[C@@H]3CCNC[C@H]3OCC3CCCCCC3)c2[nH]c1=O (racemic)
2: Cc1cc2ccnc(N[C@@H]3CCNC[C@H]3OC[C@H]3CC[C@H](O)CC3)c2[nH]c1=O (racemic)
Query: Of the pair 1 and 2 , name the member with the lesser recorded pIC50. Reply briefly: the label of your chosen item.
Result: 2

1: Cc1cc2ccnc(N[C@H]3CCNC[C@@H]3OCC3CCS(=O)(=O)CC3)c2[nH]c1=O
2: Cc1cncc(-c2cnc(N[C@@H]3CCNC[C@H]3OCC3CCS(=O)(=O)CC3)c3[nH]c(=O)c(C)cc23)c1
Query: Sort 1 and 2 by pIC50 descending and give the first. Identify your pick by its label.
Result: 1
